System: NCI-H460
Experiment: Cytotoxicity against human NCI-H460 cells assessed as cell viability after 48 hrs by MTT assay
Assay type: functional, cell-based
Details: NCI-H460, 48 h
I'd be grateful if you could share measured pIC50 for these entries.
Schema: pIC50 number; meaning minus log10 of the concentration expressed in molar units.

Query string: Return reported pIC50 for target or system NCI-H460, item `CN(C)CCCn1c(/C=C/c2ccc([N+](=O)[O-])cc2)nc2cc(Cl)ccc2c1=O` .
Result string: 5.26

Query string: Return reported pIC50 for target or system NCI-H460, item `CN(C)CCCn1c(/C=C/c2ccccc2Br)nc2cc(Cl)ccc2c1=O` .
Result string: 5.13
